These data points were gathered from the supplement of paper PMC7877785.

Experiment: self-splicing fitness, log relative to wild type (ln ratio); higher = more splicing; Tetrahymena group I intron in knt gene, E. coli kanamycin selection, DiMSum; sequences stand for … in CUCUCU…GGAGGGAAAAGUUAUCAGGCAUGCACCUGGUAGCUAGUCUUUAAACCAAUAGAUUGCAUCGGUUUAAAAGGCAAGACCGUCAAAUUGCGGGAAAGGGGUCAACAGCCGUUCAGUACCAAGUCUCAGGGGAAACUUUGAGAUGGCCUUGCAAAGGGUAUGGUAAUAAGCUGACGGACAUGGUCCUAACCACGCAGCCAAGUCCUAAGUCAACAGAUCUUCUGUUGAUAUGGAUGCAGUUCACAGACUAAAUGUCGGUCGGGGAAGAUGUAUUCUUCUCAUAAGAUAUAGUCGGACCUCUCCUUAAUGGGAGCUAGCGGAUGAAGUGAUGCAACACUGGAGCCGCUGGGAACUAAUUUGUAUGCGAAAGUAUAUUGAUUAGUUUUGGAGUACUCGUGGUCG;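 further: selection with 25 µg/mL kanamycin versus none on LB agar overnight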
Conditions: 30 °C
assay-metric: self-splicing fitness (ln)

> print(dat)
          item.sequence                assay.metric  reported.value
1  UAUCAGCAAUAUUACGGCGG  self-splicing fitness (ln)          -0.918
2  GCCGAGCAAUAUUACGGUAU  self-splicing fitness (ln)           -1.89
3  ACGGAGCAAUAUUACGCUCA  self-splicing fitness (ln)           -1.04
4  AUCUAGCAAUAUUACGGUUU  self-splicing fitness (ln)           -1.13
5  AUGUAGCAAUAUUACGAGAC  self-splicing fitness (ln)           -3.13
6  UACGAGCAAUAUUACGAUAC  self-splicing fitness (ln)            -3.5

====

This listing pairs sequences with measured self-splicing fitness (ln).
Assay: self-splicing fitness, log relative to wild type (ln ratio); higher = more splicing; Tetrahymena group I intron in knt gene, E. coli kanamycin selection, DiMSum; sequences stand for … in CUCUCU…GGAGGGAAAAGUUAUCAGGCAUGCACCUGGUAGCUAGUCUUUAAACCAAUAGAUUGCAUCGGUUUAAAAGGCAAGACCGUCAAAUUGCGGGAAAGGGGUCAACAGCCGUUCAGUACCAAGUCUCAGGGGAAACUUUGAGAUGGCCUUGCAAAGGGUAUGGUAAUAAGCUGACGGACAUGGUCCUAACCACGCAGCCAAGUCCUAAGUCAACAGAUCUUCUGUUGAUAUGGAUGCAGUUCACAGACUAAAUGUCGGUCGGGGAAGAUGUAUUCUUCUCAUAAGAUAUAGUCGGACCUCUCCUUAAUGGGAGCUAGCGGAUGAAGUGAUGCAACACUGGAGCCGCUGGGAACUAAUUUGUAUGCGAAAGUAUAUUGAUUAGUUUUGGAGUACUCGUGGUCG
Details: 37 °C
assay-metric: self-splicing fitness (ln)

> print(dat)
           item.sequence  reported.value
 1  CAUUAGCAAUAUUACGACAU           -1.97
 2  GACUAGCAAUAUUACGUGCC           -1.58
 3  GGGAAGCAAUAUUACGCAGU           0.176
 4  CCCCAGCAAUAUUACGUUAG           -2.97
 5  CUCCAGCAAUAUUACGGUUG           -1.01
 6  GUAAAGCAAUAUUACGAUGA          -0.318
 7  CGGCAGCAAUAUUACGAGGU           -1.83
 8  CAUGAGCAAUAUUACGGUGU           -2.54
 9  CAGUAGCAAUAUUACGACCU          -0.391
10  AAUGAGCAAUAUUACGGCAG           -1.87

====

Assay: self-splicing fitness, log relative to wild type (ln ratio); higher = more splicing; Tetrahymena group I intron in knt gene, E. coli kanamycin selection, DiMSum; sequences stand for … in CUCUCU…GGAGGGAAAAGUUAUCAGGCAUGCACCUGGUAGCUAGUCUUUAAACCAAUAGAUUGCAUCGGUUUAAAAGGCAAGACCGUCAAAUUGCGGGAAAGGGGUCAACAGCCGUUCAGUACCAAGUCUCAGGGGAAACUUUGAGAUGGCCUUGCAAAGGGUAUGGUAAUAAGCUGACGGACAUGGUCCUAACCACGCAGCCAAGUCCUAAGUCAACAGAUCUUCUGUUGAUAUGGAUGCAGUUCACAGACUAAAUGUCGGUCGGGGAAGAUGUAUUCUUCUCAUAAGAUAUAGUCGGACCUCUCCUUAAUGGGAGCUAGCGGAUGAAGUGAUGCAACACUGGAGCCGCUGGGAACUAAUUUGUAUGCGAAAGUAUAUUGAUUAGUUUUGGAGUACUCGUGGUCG
Details: 30 °C
This listing pairs sequences with measured self-splicing fitness (ln).
assay-metric: self-splicing fitness (ln)

> print(dat)
          item.sequence  reported.value
1  UCGUAGCAAUAUUACGGUGU           -3.09
2  CACCAGCAAUAUUACGACAG           0.251
3  UCACAGCAAUAUUACGAAGA           -1.18
4  CCUUAGCAAUAUUACGUAGU           -2.48

====

Test: self-splicing fitness, log relative to wild type (ln ratio); higher = more splicing; Tetrahymena group I intron in knt gene, E. coli kanamycin selection, DiMSum; sequences stand for … in CUCUCU…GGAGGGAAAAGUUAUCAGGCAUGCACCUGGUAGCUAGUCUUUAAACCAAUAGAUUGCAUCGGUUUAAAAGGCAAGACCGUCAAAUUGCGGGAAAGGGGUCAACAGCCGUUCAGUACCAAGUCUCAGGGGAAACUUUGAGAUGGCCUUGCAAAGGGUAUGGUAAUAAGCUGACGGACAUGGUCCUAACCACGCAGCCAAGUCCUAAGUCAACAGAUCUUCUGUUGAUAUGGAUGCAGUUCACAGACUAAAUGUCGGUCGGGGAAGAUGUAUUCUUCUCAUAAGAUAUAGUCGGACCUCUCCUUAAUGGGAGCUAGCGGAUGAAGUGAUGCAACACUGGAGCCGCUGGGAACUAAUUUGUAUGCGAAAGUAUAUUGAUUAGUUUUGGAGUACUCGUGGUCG
Settings: 30 °C
This listing pairs sequences with measured self-splicing fitness (ln).
assay-metric: self-splicing fitness (ln)

> print(dat)
           item.sequence                assay.metric  reported.value
 1  UUCAAGCAAUAUUACGUCAU  self-splicing fitness (ln)           -2.97
 2  CCUGAGCAAUAUUACGUUAA  self-splicing fitness (ln)           -2.92
 3  GCGUAGCAAUAUUACGGAUU  self-splicing fitness (ln)           -1.59
 4  GGUGAGCAAUAUUACGUCUA  self-splicing fitness (ln)           -1.91
 5  UCCCAGCAAUAUUACGGCAU  self-splicing fitness (ln)           -2.77
 6  ACUAAGCAAUAUUACGUAAC  self-splicing fitness (ln)           -4.39
 7  UGUAAGCAAUAUUACGCCUC  self-splicing fitness (ln)           -3.28
 8  UACAAGCAAUAUUACGAGGC  self-splicing fitness (ln)            -2.4
 9  CUACAGCAAUAUUACGUUGC  self-splicing fitness (ln)           -3.67
10  UGGCAGCAAUAUUACGUCGC  self-splicing fitness (ln)           -3.89
11  GCUCAGCAAUAUUACGUUCC  self-splicing fitness (ln)          -0.532
12  ACAUAGCAAUAUUACGGGGU  self-splicing fitness (ln)           -3.67
13  CGACAGCAAUAUUACGACUU  self-splicing fitness (ln)            -1.1
14  UCUAAGCAAUAUUACGUAGU  self-splicing fitness (ln)          -0.857
15  UUGCAGCAAUAUUACGCUAC  self-splicing fitness (ln)          -0.542
16  CCCCAGCAAUAUUACGUGCU  self-splicing fitness (ln)           -3.34
17  ACACAGCAAUAUUACGUAAG  self-splicing fitness (ln)           -2.06
18  UUCCAGCAAUAUUACGUCCA  self-splicing fitness (ln)           -1.05
19  UGAGAGCAAUAUUACGUAUG  self-splicing fitness (ln)           -1.55
20  CUUAAGCAAUAUUACGGUGG  self-splicing fitness (ln)            -1.7
21  GGACAGCAAUAUUACGCGAU  self-splicing fitness (ln)           -2.52
22  AUCGAGCAAUAUUACGGCUC  self-splicing fitness (ln)           -1.39
23  CCAUAGCAAUAUUACGUUAA  self-splicing fitness (ln)           -3.44
24  CGAUAGCAAUAUUACGUCCG  self-splicing fitness (ln)            -1.4
25  UUUAAGCAAUAUUACGCUGU  self-splicing fitness (ln)           -3.57
26  CGUUAGCAAUAUUACGUUAA  self-splicing fitness (ln)           -3.44
27  GAGAAGCAAUAUUACGGCCU  self-splicing fitness (ln)           -0.28
28  AAGUAGCAAUAUUACGGCGG  self-splicing fitness (ln)           -2.56
29  ACAGAGCAAUAUUACGGUAC  self-splicing fitness (ln)           -3.57
30  CACAAGCAAUAUUACGCUGC  self-splicing fitness (ln)           -5.23
31  UAAAAGCAAUAUUACGGGUG  self-splicing fitness (ln)           -0.67
32  GCAGAGCAAUAUUACGACGC  self-splicing fitness (ln)           -3.56
33  GGGUAGCAAUAUUACGUCUU  self-splicing fitness (ln)          -0.106
34  CGCCAGCAAUAUUACGGUAC  self-splicing fitness (ln)           -2.83
35  UUUGAGCAAUAUUACGCAUG  self-splicing fitness (ln)          -0.647
36  CGCUAGCAAUAUUACGUCCU  self-splicing fitness (ln)           -1.59
37  AUUAAGCAAUAUUACGACAU  self-splicing fitness (ln)           0.191
38  AACUAGCAAUAUUACGUGGG  self-splicing fitness (ln)           -3.79
39  ACUCAGCAAUAUUACGGCCU  self-splicing fitness (ln)         -0.0739
40  AGGUAGCAAUAUUACGAGCG  self-splicing fitness (ln)          -0.808
41  AUACAGCAAUAUUACGCUAU  self-splicing fitness (ln)           -3.03
42  GGGGAGCAAUAUUACGCCCA  self-splicing fitness (ln)           -1.14
43  UCUAAGCAAUAUUACGAACA  self-splicing fitness (ln)           -1.21
44  GAAAAGCAAUAUUACGGCGG  self-splicing fitness (ln)           -1.86
45  UUGGAGCAAUAUUACGCCCG  self-splicing fitness (ln)           -1.94
46  UUUCAGCAAUAUUACGACUG  self-splicing fitness (ln)           -2.89
47  CCAAAGCAAUAUUACGUCGC  self-splicing fitness (ln)           -3.49
48  GAAUAGCAAUAUUACGCAUU  self-splicing fitness (ln)           -3.04
49  GUGUAGCAAUAUUACGUACG  self-splicing fitness (ln)           -2.64
50  GUGAAGCAAUAUUACGCCUC  self-splicing fitness (ln)           -1.22
51  ACUUAGCAAUAUUACGUCAA  self-splicing fitness (ln)           -4.05
52  UUUAAGCAAUAUUACGACAG  self-splicing fitness (ln)          -0.664
53  CCCCAGCAAUAUUACGGGUG  self-splicing fitness (ln)            -3.8
54  GAACAGCAAUAUUACGGGAU  self-splicing fitness (ln)           -2.26
55  CUUGAGCAAUAUUACGUUGA  self-splicing fitness (ln)           -3.17
56  AACAAGCAAUAUUACGAUAC  self-splicing fitness (ln)           -3.73
